# target-of-assay: cruzain (Trypanosoma cruzi)
# Sequence (P25779 123-467): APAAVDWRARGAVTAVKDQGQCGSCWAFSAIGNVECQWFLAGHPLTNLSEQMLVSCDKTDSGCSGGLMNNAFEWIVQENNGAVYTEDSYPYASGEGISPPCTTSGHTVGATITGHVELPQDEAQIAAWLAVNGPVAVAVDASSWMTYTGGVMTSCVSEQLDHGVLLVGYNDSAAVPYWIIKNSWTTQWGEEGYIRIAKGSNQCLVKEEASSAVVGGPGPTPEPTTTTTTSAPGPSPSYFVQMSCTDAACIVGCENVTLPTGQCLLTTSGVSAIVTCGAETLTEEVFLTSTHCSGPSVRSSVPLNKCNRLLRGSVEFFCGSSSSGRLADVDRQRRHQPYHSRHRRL
# method-summary: Inhibition of cruzain (conditions as for cathepsin L)
# Assay type: biochemical, T. cruzi
# experimental-setup: 50 mM acetate, pH 5.5, 2.5 mM EDTA, 2.5 mM DTT; Km 1 mM; Dixon plot; read-out: cruzain (Ki μM)
Ki values for the molecules below.
Quick reminder: number only, in µM, skip the unit.

Worked set:
compound-structure: O=C(N[C@@H](CCc1ccccc1)CCS(=O)(=O)CCc1ccccc1)[C@H](Cc1ccccc1)NC(=O)N1CCOCC1
measurement-units: µM
Ki: 5.9

compound-structure: NCCC(=O)N[C@@H](Cc1ccccc1)C(=O)N[C@@H](CCc1ccccc1)CCS(=O)(=O)c1ccccc1
measurement-units: µM
Ki: 14

We now examine a further molecule.
Give recorded Ki with cruzain (Trypanosoma cruzi) for the following molecule: `O=C(O)CCC(=O)N[C@@H](Cc1ccccc1)C(=O)N[C@@H](CCc1ccccc1)CCS(=O)(=O)c1ccccc1`
1.5
